Biological target: hMAO-A (Homo sapiens)
Construct: purchased Sigma-Aldrich (Steinheim, Germany)
Sequence (P21397 whole entry): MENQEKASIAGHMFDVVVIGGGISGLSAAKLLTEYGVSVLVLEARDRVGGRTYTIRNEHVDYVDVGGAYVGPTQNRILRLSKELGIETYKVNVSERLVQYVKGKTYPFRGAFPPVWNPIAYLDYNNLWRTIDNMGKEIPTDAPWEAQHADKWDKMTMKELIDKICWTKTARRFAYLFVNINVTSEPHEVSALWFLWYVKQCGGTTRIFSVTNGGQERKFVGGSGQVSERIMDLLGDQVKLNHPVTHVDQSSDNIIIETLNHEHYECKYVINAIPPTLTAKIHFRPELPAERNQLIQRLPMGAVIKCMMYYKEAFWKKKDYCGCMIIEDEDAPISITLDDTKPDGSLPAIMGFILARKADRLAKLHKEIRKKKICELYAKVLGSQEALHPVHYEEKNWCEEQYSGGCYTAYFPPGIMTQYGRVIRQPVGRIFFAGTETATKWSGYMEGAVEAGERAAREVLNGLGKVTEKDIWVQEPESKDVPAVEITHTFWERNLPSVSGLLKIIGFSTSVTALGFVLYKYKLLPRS
Experiment: MAO-A inhibition assay, fluorometric (Amplex Red / horseradish peroxidase-coupled)
Type: biochemical
Conditions: 10^−4 M; read-out: MAO-A % Inhibition
readoutType: inhibition at 100 µM
Answer with the number, then the unit.

Please review the entries below; each comes with its answer.
Cc1ccc(CN(C(=O)CSc2nnc(C)s2)c2ccc(S(N)(=O)=O)cc2)cc1 31.1%
NS(=O)(=O)c1ccc(N(Cc2ccccc2)C(=O)CSc2nnnn2-c2ccccc2)cc1 28%
Cc1ccc(CN(C(=O)CSc2nncn2C)c2ccc(S(N)(=O)=O)cc2)cc1 25.2%
Cc1ccc(CN(C(=O)CSc2ccccn2)c2ccc(S(N)(=O)=O)cc2)cc1 24.9%

// switching to the query molecule
# get_value(readout='inhibition at 100 µM', item= Cc1nnc(SCC(=O)N(Cc2ccccc2)c2ccc(S(N)(=O)=O)cc2)s1 )
24.1%

Taken from paper PMC7821958.
